test system: CYP3A (hepatic); experiment: Example 3: IV midazolam probe for CYP3A activity at a range of RTV doses; conditions: human, plasma, iv, probe midazolam, CL (mean), MDZ 1 mg IV, +100 mg RTV

>  <Molecule>
Cc1ncc2n1-c1ccc(Cl)cc1C(c1ccccc1F)=NC2 [MDZ, midazolam]

>  <clearance (mL/min/kg)>
1.2

$$$$

---

experiment: Example 3: pharmacokinetics of Compound 1 and RTV at a range of RTV doses; details: both, human, plasma, oral, Cmax, RTV in plasma; Compound 1 125 mg + 200 mg RTV QD; mean (CV %)

>  <Compound>
CC(C)c1nc(CN(C)C(=O)N[C@H](C(=O)N[C@@H](Cc2ccccc2)C[C@H](O)[C@H](Cc2ccccc2)NC(=O)OCc2cncs2)C(C)C)cs1 [Ritonavir, reference compound]

>  <Units label>
ng/mL

>  <Cmax>
2460

$$$$

Numbers sourced from patent US20070219243A1.
